- assayedSystem: mouse ADAMTS7 (Mus musculus, UniProt Q68SA9)
- Construct: Full-length mouse Adamts7 1-1857 (Uniprot Q68SA9, WT or E373Q catalytic mutant); expressed in transfected cells; host or cells: Human Coronary Artery Smooth Muscle Cells (HCA-SMC, Lonza), adenovirus 50 MOI
- Sequence (Q68SA9 221-1657): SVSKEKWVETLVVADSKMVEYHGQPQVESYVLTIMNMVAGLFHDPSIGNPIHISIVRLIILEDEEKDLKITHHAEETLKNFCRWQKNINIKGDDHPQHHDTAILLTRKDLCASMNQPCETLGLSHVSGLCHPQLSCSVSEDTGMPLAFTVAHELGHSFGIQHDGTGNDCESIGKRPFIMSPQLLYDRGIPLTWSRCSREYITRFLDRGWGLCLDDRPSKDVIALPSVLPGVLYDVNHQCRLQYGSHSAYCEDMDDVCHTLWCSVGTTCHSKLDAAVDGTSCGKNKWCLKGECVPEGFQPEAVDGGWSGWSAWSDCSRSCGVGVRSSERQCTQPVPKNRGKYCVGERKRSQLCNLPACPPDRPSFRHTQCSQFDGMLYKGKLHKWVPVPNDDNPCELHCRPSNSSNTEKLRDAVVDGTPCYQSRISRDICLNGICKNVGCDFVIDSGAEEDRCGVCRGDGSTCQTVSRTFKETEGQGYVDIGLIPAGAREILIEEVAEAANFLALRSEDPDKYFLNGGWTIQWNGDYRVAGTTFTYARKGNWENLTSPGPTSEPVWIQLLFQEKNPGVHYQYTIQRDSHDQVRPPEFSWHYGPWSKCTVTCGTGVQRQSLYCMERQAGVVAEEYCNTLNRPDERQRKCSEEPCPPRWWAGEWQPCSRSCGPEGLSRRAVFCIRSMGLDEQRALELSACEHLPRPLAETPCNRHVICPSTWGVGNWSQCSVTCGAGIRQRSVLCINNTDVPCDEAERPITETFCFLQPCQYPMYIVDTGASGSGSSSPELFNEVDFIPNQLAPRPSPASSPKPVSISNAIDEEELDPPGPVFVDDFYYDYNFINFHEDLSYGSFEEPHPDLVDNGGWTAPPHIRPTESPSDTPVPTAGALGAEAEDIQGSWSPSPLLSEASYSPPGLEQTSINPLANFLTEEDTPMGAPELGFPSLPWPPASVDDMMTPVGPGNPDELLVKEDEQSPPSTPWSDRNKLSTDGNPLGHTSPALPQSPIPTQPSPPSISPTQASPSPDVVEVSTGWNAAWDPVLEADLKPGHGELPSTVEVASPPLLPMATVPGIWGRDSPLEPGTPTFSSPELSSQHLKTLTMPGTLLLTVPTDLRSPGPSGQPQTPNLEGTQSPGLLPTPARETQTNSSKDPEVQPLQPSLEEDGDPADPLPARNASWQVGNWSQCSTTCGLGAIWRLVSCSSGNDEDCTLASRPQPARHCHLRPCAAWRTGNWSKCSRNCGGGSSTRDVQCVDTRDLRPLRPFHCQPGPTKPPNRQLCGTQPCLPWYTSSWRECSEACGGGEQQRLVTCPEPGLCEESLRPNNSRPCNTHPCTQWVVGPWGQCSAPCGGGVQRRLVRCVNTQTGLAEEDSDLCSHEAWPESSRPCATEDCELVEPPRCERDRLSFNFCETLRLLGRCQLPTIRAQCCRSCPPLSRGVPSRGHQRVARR
- assayInfo: TMT10 TAILS N-terminomics, SMC2 experiment (process replicates, trypsin/AspN digest)
- Assay type: cell-based
- measurementSetup: log fold change, ADAMTS7 WT over luciferase
Square brackets hold non-standard residues; d marks the D form. Ends that are not written are not given here.
endpointLabel: logFC.mWT.over.Lux

Sample answers from the record:
[[record]]
substance = "STC2_244 (HHLPEPSSR; listed as Homo sapiens)"
endpointlabel = "logFC.mWT.over.Lux"
valuemeasured = 1.09

[[record]]
substance = "QSOX1_558 (VAAAPELAMGALELESR; listed as Homo sapiens)"
endpointlabel = "logFC.mWT.over.Lux"
valuemeasured = 0.94

[[record]]
substance = "THBS2_290 (LSENLKR; listed as Homo sapiens)"
endpointlabel = "logFC.mWT.over.Lux"
valuemeasured = 4.65


P: SERBP1_56 (QAAAQTNSNAAGKQLR; listed as Homo sapiens)
Q: TGFBI_43 ([code q]HGPNVCAVQKVIGTNR; not fully specified; listed as Homo sapiens)
Which has the higher logFC.mWT.over.Lux, P or Q ? # respond with the chosen item's label
P
